Where a name gives a salt, the structure may show the parent alone.
RECORDED_ENDPOINT: melting point

Consider the reported melting point for these molecules:
COC(=O)CN1CCC(CNc2ncc3cc(-c4ccccc4Cl)c(=O)[nH]c3n2)CC1.Cl
220 to 221.1 °C
CN1CCC(CNc2ncc3cc(-c4ccccc4Cl)c(=O)[nH]c3n2)CC1.Cl
213 to 220 °C
C[C@H](Nc1ncc2cc(-c3ccccc3Cl)c(=O)n(C)c2n1)C(C)(C)O (as salt: HCl)
178 to 181.5 °C
C[C@@H](Nc1ncc2cc(-c3ccccc3Cl)c(=O)n(-c3ccc(F)cc3)c2n1)C(C)(C)O
206.8 to 207.5 °C
Cl.Cn1c(=O)c(-c2ccccc2Cl)cc2cnc(NC3CCC3)nc21
205.3 to 210.9 °C

Lookup: Retrieve melting point measured for Cn1c(=O)c(-c2ccccc2Cl)cc2cnc(NC(C)(C)CO)nc21 (as salt: HCl) and print it.
Found: 228.6 to 228.9 °C

###

Where a name gives a salt, the structure may show the parent alone.
RECORDED_ENDPOINT: melting point

Nn1c(=O)c(-c2ccccc2Cl)cc2cnc(NC3CCCC3)nc21
147 to 154 °C
CN(C)C(=O)CN1CCC(CNc2ncc3cc(-c4ccccc4Cl)c(=O)[nH]c3n2)CC1.Cl
211.8 to 212.8 °C

Lookup: Retrieve melting point measured for Cl.O=C(O)CN1CCC(CNc2ncc3cc(-c4ccccc4Cl)c(=O)[nH]c3n2)CC1 and print it.
Found: 235.3 to 237.9 °C

Lookup: Retrieve melting point measured for COCCC(C)Nc1ncc2cc(-c3ccccc3Cl)c(=O)n(C)c2n1.Cl (stereo not drawn) and print it.
Found: 156.4 to 160.2 °C

Lookup: Retrieve melting point measured for C[C@H](Nc1ncc2cc(-c3ccccc3Cl)c(=O)n(-c3ccc(F)cc3)c2n1)C(C)(C)O (as salt: HCl) and print it.
Found: 142 to 149 °C

Lookup: Retrieve melting point measured for Cn1c(=O)c(-c2ccccc2Cl)cc2cnc(N[C@H](CO)C(C)(C)C)nc21 and print it.
Found: 171.2 to 174 °C

Lookup: Retrieve melting point measured for CC(Nc1ncc2cc(-c3ccccc3Cl)c(=O)n(C)c2n1)C(C)S(C)(=O)=O.Cl (stereo not drawn) and print it.
Found: 142.1 to 144.3 °C

Lookup: Retrieve melting point measured for C[C@H](Nc1ncc2cc(-c3ccccc3Cl)c(=O)n(C)c2n1)C(C)(C)O.Cl and print it.
Found: 194 to 195.3 °C

Lookup: Retrieve melting point measured for C[C@H](Nc1ncc2cc(-c3ccccc3Cl)c(=O)n(N)c2n1)C(C)(O)O.Cl and print it.
Found: > 300 °C
